Tested on: MUSK
assay-conditions: concentration: 1 μM, replicates: in singlicate; n = 1;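 also: KINOMEscan kinase panel screen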
Kindly supply the reported %Inh values for the records listed here.
Please respond with the number in % and leave the unit unwritten.

Prompt: What value of measured %Inh is listed for Cc1c2ccc(N(C)c3ccnc(Nc4cccc(S(N)(=O)=O)c4)n3)cc2nn1Cc1ccccc1.Cl.Cl [GW787226] ?
Completion: 33

Prompt: What value of measured %Inh is listed for O=C(Nc1cccc(-c2nn3ncccc3c2-c2ccnc(Nc3cccc(C(F)(F)F)c3)n2)c1)c1c(F)cccc1F [GSK299495] ?
Completion: 26

Prompt: What value of measured %Inh is listed for CN(C(=O)c1ccc(-c2cc(-c3c[nH]nc3-c3ccccn3)ccn2)cc1)C1CCOCC1 [GW810083] ?
Completion: 0

Prompt: What value of measured %Inh is listed for COc1ccc(S(=O)(=O)NC2CCN(c3cc(C)nc(Nc4cccc(C#N)c4)n3)CC2)cc1.O=C(O)C(F)(F)F [GSK1653539] ?
Completion: 0

Prompt: What value of measured %Inh is listed for COc1cc2ncn(-c3cc(OCc4sccc4Cl)c(C(N)=O)s3)c2cc1OC [GSK448459] ?
Completion: 7

Prompt: What value of measured %Inh is listed for N#Cc1ccc(-c2cc(-c3c[nH]nc3-c3ccccn3)ccn2)cc1 [GW693028] ?
Completion: 0

Prompt: What value of measured %Inh is listed for Cc1cccc(Cn2ccn3c(=O)cc(N4CCOCC4)nc23)c1 [GSK2297542] ?
Completion: 2

Prompt: What value of measured %Inh is listed for CC(=O)Nc1ccc(COc2ccc(Nc3ccnc4cc(-c5ccccn5)ccc34)cc2)cc1.Cl [GW440148] ?
Completion: 8

###

Tested on: TNK2
assay-conditions: concentration: 1 μM, replicates: in singlicate; n = 1
// label = Condition met if %Inh is not less than 6%, otherwise Condition not met

Prompt: Evaluate O=C1NC(=O)C(N2CCc3ccccc32)=C1c1cccc(Cl)c1 : %Inh at minimum 6%?
Completion: Condition not met

Prompt: Evaluate Cc1cccc(-c2nc(-c3ccc(S(C)(=O)=O)cc3)sc2-c2ccncc2)c1 : %Inh at minimum 6%?
Completion: Condition not met

Prompt: Evaluate CC(C)Oc1ccc2c(-c3ccnc(Nc4ccc(N5CCN(C)CC5)cc4)n3)cnn2n1 : %Inh at minimum 6%?
Completion: Condition met

Prompt: Evaluate COc1ccc(Nc2ncc(C#N)c(Nc3ccccc3C(N)=O)n2)cc1N1CCN(C)CC1.Cl : %Inh at minimum 6%?
Completion: Condition met

Prompt: Evaluate [2H]C([2H])(c1cccc(C(F)(F)F)c1C)n1ccn2c(=O)nc(N3CCOCC3)cc12 : %Inh at minimum 6%?
Completion: Condition met

Prompt: Evaluate O=C1Cc2cc(Nc3nc(NCc4cccc(S(=O)(=O)C(F)(F)F)c4)ncc3C(F)(F)F)ccc2N1 : %Inh at minimum 6%?
Completion: Condition met

Prompt: Evaluate Cl.Oc1cccc(Nc2ccnc3cc(-c4ccncc4)ccc23)c1 : %Inh at minimum 6%?
Completion: Condition met

###

System: ADCK4
assay-conditions: concentration: 1 μM, replicates: in singlicate; n = 1
readout-name: %Inh (%)
Please respond with the number in % and leave the unit unwritten.

Prompt: What value of measured %Inh is listed for O=c1cc(N2CCOCC2)nc2n(Cc3cccc(Cl)c3Cl)c(C3CC3)nn12 [GSK2358994] ?
Completion: 0

Prompt: What value of measured %Inh is listed for O=C(NCCNc1ccnc(Nc2ccc(F)cc2)n1)c1cc2ccccc2s1 [GSK1379874] ?
Completion: 27

Prompt: What value of measured %Inh is listed for O=c1cc(N2CCOCC2)nc2n(Cc3cccc(C(F)(F)F)c3)ccn12 [GSK2297543] ?
Completion: 16

Prompt: What value of measured %Inh is listed for O=C(Nc1n[nH]c2cc(-c3cccc(F)c3)ccc12)C1CC1 [SB-735464] ?
Completion: 0

Prompt: What value of measured %Inh is listed for O=c1cc(N2CCOCC2)nc2n(Cc3cccc4ccccc34)ccn12 [GSK2333389] ?
Completion: 0

Prompt: What value of measured %Inh is listed for O=C1NC(=O)C(N2CCc3ccccc32)=C1c1cccc(Cl)c1 [SB-408010] ?
Completion: 0

Prompt: What value of measured %Inh is listed for CSc1ccc(-c2cc3ncnc(SCC(=O)O)c3s2)cc1 ?
Completion: 0

Prompt: What value of measured %Inh is listed for Cc1c(Cn2c(C)nn3c(=O)cc(N4CCOC(C)C4)nc23)cccc1C(F)(F)F (stereo not drawn) [GSK2344444] ?
Completion: 0

Prompt: What value of measured %Inh is listed for CC(C)Oc1ccc2c(-c3ccnc(Nc4ccc(N5CCN(C)CC5)cc4)n3)cnn2n1 [GW696155] ?
Completion: 83

Prompt: What value of measured %Inh is listed for N#Cc1c(N2CCOCC2)sc(-c2ccn[nH]2)c1-c1ccc(Cl)cc1 ?
Completion: 0

Prompt: What value of measured %Inh is listed for COc1ccc(Nc2nccc(N3CCC(NC(=O)Nc4cccc(C(C)=O)c4)C3)n2)cc1 (stereo not drawn) [GSK1379731] ?
Completion: 11

Prompt: What value of measured %Inh is listed for NS(=O)(=O)c1cccc(-c2ccc3nccc(-c4cccc(S(N)(=O)=O)c4)c3c2)c1 [GW867253] ?
Completion: 10

Prompt: What value of measured %Inh is listed for O=c1cc(N2CCOCC2)nc2n(Cc3cccc(F)c3)ccn12 [GSK2297430] ?
Completion: 0

Prompt: What value of measured %Inh is listed for NS(=O)(=O)c1cccc(-c2ccc3ncc(N4CCOCC4)nc3c2)c1 [GSK1535721] ?
Completion: 9

Prompt: What value of measured %Inh is listed for O=C(c1ccc(-c2cc(-c3c[nH]nc3-c3ccccn3)ccn2)cc1)N1CCOCC1 [GW812171] ?
Completion: 0

Prompt: What value of measured %Inh is listed for CC(=O)Nc1ccc(COc2ccc(Nc3ccnc4cc(-c5ccccn5)ccc34)cc2)cc1.Cl [GW440148] ?
Completion: 26

Prompt: What value of measured %Inh is listed for c1ccc(-c2cc(-c3c[nH]nc3-c3ccccn3)ccn2)cc1 [GW576604] ?
Completion: 12

Prompt: What value of measured %Inh is listed for Fc1ccc(-c2nn3c(OCC(F)(F)F)cccc3c2-c2ccncc2)cc1 [GW514784] ?
Completion: 46

Prompt: What value of measured %Inh is listed for Cc1nnc(-c2ccc3occ(-c4ccc(C(C)O)cc4)c3c2)o1 (stereo not drawn) ?
Completion: 0

Prompt: What value of measured %Inh is listed for Cl.Nc1ncnc2occ(-c3ccc(NC(=O)Nc4cc(C(F)(F)F)ccc4F)cc3)c12 [SB-707548] ?
Completion: 28

Prompt: What value of measured %Inh is listed for CN(C(=O)c1ccc(-c2cc(-c3c[nH]nc3-c3ccccn3)ccn2)cc1)C1CCOCC1 [GW810083] ?
Completion: 24

Prompt: What value of measured %Inh is listed for COc1ccc(COc2cc(-n3cnc4ccccc43)sc2C(N)=O)cc1 [GSK1024304] ?
Completion: 0

Prompt: What value of measured %Inh is listed for CCCCCc1nc2c(N)ncnc2n1CCCCC [SKF-97255] ?
Completion: 0

Prompt: What value of measured %Inh is listed for C[C@@H](Oc1cc(-n2cnc3ccc(NC(=O)NC(C)(C)C)cc32)sc1C(N)=O)c1ccccc1Cl [GSK346294] ?
Completion: 31

Prompt: What value of measured %Inh is listed for Cn1cc(-c2ccc3c(c2)CCN3C(=O)Cc2ccccc2Cl)c2c(N)ncnc21 [GSK2608885] ?
Completion: 88

Prompt: What value of measured %Inh is listed for CN1c2ccc(NCc3ccc(F)cc3)cc2-c2c(cnn2C)S1(=O)=O ?
Completion: 0

Prompt: What value of measured %Inh is listed for Fc1ccc(-c2ncn(CCCN3CCOCC3)c2-c2ccccn2)cc1 [SB-211742] ?
Completion: 6

Prompt: What value of measured %Inh is listed for O=C(NCCNc1ccnc(Nc2ccc(F)cc2)n1)Nc1ccccc1F [GSK1379880] ?
Completion: 19

Prompt: What value of measured %Inh is listed for N#Cc1ccc(-c2cc(-c3c[nH]nc3-c3ccccn3)ccn2)cc1 [GW693028] ?
Completion: 20

Prompt: What value of measured %Inh is listed for O=C1Cc2cc(Nc3nc(NCc4cccc(S(=O)(=O)C(F)(F)F)c4)ncc3C(F)(F)F)ccc2N1 ?
Completion: 2

Prompt: What value of measured %Inh is listed for CN(C1=C(c2ccccc2)C(=O)NC1=O)c1ccccc1 [SB-334860] ?
Completion: 15

Prompt: What value of measured %Inh is listed for COc1ccc(Nc2nccc(N3CCC(NC(=O)Nc4cc(C)ccc4C)C3)n2)cc1 (stereo not drawn) [GSK1379741] ?
Completion: 32

Prompt: What value of measured %Inh is listed for Cc1cccc(Cn2ccn3c(=O)cc(N4CCOCC4)nc23)c1 [GSK2297542] ?
Completion: 44

Prompt: What value of measured %Inh is listed for COc1cc2ncn(-c3cc(OCc4sccc4Cl)c(C(N)=O)s3)c2cc1OC [GSK448459] ?
Completion: 39

Prompt: What value of measured %Inh is listed for Cc1ccc(NC(=O)c2ccnc(N3CCN(C)CC3)c2)cc1-c1ccc(C(=O)NCC2CC2)cc1 [GW775604] ?
Completion: 0

Prompt: What value of measured %Inh is listed for Cc1cccc(-c2nc(-c3ccc(S(C)(=O)=O)cc3)sc2-c2ccncc2)c1 ?
Completion: 0

Recorded values, source paper PMC5540273.
